test system: NCI-H1876 cell line; test: CTG viability, 11x11 concentration matrix, Loewe synergy (SCLC); details: inhibitor combined with compound 1-1, 11x11 matrix, 72 hours
Collected Mean Loewe synergy score, NCI-H1876 values appear next to each entry.
Give only the figure.

response.value for CO[C@H]1C[C@@H]2CC[C@@H](C)[C@@](O)(O2)C(=O)C(=O)N2CCCC[C@H]2C(=O)O[C@H]([C@H](C)C[C@@H]2CC[C@@H](OCCO)[C@H](OC)C2)CC(=O)[C@H](C)/C=C(\C)[C@@H](O)[C@@H](OC)C(=O)[C@H](C)C[C@H](C)/C=C/C=C/C=C/1C (field: Mean Loewe synergy score, NCI-H1876) = −0.29

response.value for NC1(C(=O)N[C@@H](CCO)c2ccc(Cl)cc2)CCN(c2ncnc3[nH]ccc23)CC1 (field: Mean Loewe synergy score, NCI-H1876) = 0.7

response.value for Nc1cc(C(F)(F)F)c(-c2cc(N3CCOCC3)nc(N3CCOCC3)n2)cn1 (field: Mean Loewe synergy score, NCI-H1876) = 0.017

The record that follows has no Mean Loewe synergy score, NCI-H1876 shown yet.
response.value for Cc1nc(NC(=O)N2CCC[C@H]2C(N)=O)sc1-c1ccnc(C(C)(C)C(F)(F)F)c1 (field: Mean Loewe synergy score, NCI-H1876) = 1.64

Values from patent US20260166045A1
